- Tested on: Jurkat cells
- Measurement Notes: CFSE-based cytotoxic activity assay
- Study Conditions: concentration inducing cytotoxicity ≥30%, 3 days

| Molecule | cytoxicity Jurkat (effect ≥30% ± SD) |
| --- | --- |
| O=C(Nc1c(F)c(F)c(-c2cccc(OC(F)(F)F)c2)c(F)c1F)c1c(O)nn2ccccc12 [Compound 15] | >100 µM |
| CCCOc1cccc(-c2c(F)c(F)c(NC(=O)c3c(O)nn4ccccc34)c(F)c2F)c1 [Compound 17] | >100 µM |
| O=C(Nc1c(F)c(F)c(-c2cccc(C(F)(F)F)c2)c(F)c1F)c1c(O)nn2ccccc12 [Compound 13] | >100 µM |
